Assay: Acute toxicity, oral, Pharmacological test example 3
Conditions: in vivo, 7 week-old BDF2 female mouse, 21 days after administration, read-out: ID50 (LD50 from mortality)
Protocol: The compounds of the present invention obtained in Examples 4 and 7 were orally administered to 7 week-old BDF2 female mouse (10 mice per group). After 21 days from the administration, mortality of the mice was judged and LD50 value was evaluated from mortality according to the Richfield-Wilcokson method.
readout kind: LD50 at 504 h

// known answers, use as guide
| smi | LD50 at 504 h |
| --- | --- |
| CCCC(CCC)C(=O)NCC(=O)NCCCCCCNC(=O)n1cc(F)c(=O)[nH]c1=O | ≥ 1000 mg/kg |
| O=c1[nH]cc(F)c(=O)[nH]1 | 928 mg/kg |
| CCCC(CCC)C(=O)NCC(=O)OC[C@H]1O[C@@H](n2cc(F)c(=O)[nH]c2=O)[C@H](OC(=O)CNC(=O)C(CCC)CCC)[C@@H]1OC(=O)CNC(=O)C(CCC)CCC | ≥ 5000 mg/kg |

Shifting focus to the compound that follows.
Qu. Using known records, supply LD50 at 504 h for `CCCC(CCC)C(=O)NCC(=O)OC[C@H]1O[C@@H](n2cc(F)c(=O)[nH]c2=O)[C@H](O)[C@@H]1OC(=O)CNC(=O)C(CCC)CCC`
Ans. ≥ 3000 mg/kg
